Target: T1, Kp FimHLD
T1 chain: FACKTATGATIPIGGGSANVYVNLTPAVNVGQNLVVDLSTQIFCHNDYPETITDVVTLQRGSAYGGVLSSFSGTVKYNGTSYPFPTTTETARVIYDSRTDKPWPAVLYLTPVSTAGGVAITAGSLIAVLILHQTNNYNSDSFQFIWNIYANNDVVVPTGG
Test: ELISA
I'd be grateful if you could share measured EC50 for these entries.
Kindly report the value followed by its unit.

# count of solved cases: 4
BINDER: Kp 1B07 (antibody, V domains shown) VH: EVQLQQPGAELVKPGTSVKLSCKASGYTFTSYWMHWVKQRPGQGLEWIGMIHPNSGSTNYNEMFESKASLTVDKSSSTAYMQLSSLTSEDSAVYYCARIGYSGWGQGTSVTVSS VL: DIVMTQSPSSLSVSAGEKVTMSCKSSQSLLNGGNQKNYLAWYQQKPGQPPKVLINGASTRESGVPDRFTGNGSGTDFTLTISSVQAEDLAVYYCQNDHTYPLTFGAGTKLELKR
EC50: 0.0148 µg/mL
//
BINDER: Kp 2D10 (antibody, V domains shown) VH: EVQLQQSGAELVKPGASVKLSCKASGYTFTTYWMHWMKQWPGQGLEWIGLIHPNSGSTYYNEKFKSKATLTVDKSSSTAYMQLSSLTSEDSAVYYCARFEELWGGYWYFDVWGTGTTVTVSS VL: QIVLTQSPALMAASPGEKVTITCSVSSSISSSNLHWYQQKSETSPKPWIYGTSNLASGVPVRFSGSGSGTSYSLTISSMEAEDAATYYCQQWSSYPYTFGGGTKLEIKR
EC50: 0.0109 µg/mL
//
BINDER: Ec H9 (antibody, V domains shown) VH: EVQLQQSGPVLVKPGPSVKISCKASGFTFTDYFVHWVKQSHGKSLEWIGLVSPYNGGTYYNQQFKGKATLTVDTSSSTAYMDLNSLTSEDSAVYYCARLLRGYWYFDVWGTGTTVTVSS VL: QIVLTQSPALMAASPGEKVTITCSVSSSISSSTLHWYQQKSETSPKPWIYGTSNLASGVPVRFGGSGSGTSYSLTISSMEAEDAATYYCQQWSTYPYTFGGGTKLEIKR
EC50: 0.0243 µg/mL
//
BINDER: Kp 1E04 (antibody, V domains shown) VH: EVQLQQSGAELVKPGASVKLSCKASGYTFTSYWVHWVRQRPGQGLEWIGMIHPNSGSTNYNEKFKSKATLTVDKSSSTAYMQLSSLTSEDSAVYYCASYYYGSSYYFDYWGQGTTLTVSS VL: DIVMTQSPSSLTVTAGEKVTMSCKSSQSLLNSGNQKNYLTWYQQKPGQPPKLLIYWASTRESGVPDRFTGSGSGTDFTLTISSVQAEDLAVYYCQNDYSYPLTFGAGTKLELKR
EC50: 0.731 µg/mL

Next binder, please.
stdin: Please report the recorded EC50 for Kp 2D04 (antibody, V domains shown) VH: EVQLQQPGGELVRPGSSVKMSCKTSGYTFTFYGINWVKQRPGQGLEWIGYIYVGNGYTEYNEKFKVKATLTSDTSSSTAYMQLSGLTSEDSAIYFCARSDGYNYFDYWGQGTTLTVSS VL: QIVLTQSPAILTASPGEKVTMTCRASSSVHYMHWYQQKPGSSPKPWIYATSNLASGVPARFSGSGSGTSYSLTISRVEAEDTATYYCHQWSSNPPTFGAGTKLEIKR .
stdout: 0.0119 µg/mL

This collection of values is drawn from patent US20250304662A1.
